- assay text: Plasma stability, human plasma
- condition summary: human, plasma, Flag (half-life, assay exceeded), human plasma, 37° C.
Bridge positions count the residues as written; N and C are the ends. Square brackets hold non-standard residues; d marks the D form. Peptide text beside a SMILES is read from it.
reported property: half-life

CC(=O)N1CCC[C@H]1C(=O)N[C@@H](CO)C(=O)N[C@@H](CCCNC(=N)N)C(=O)N[C@@H](CC(C)C)C(=O)N[C@@H](CCC(=O)O)C(=O)N[C@H]1CCC(=O)NCCCC[C@H](C(=O)N[C@@H](CCCNC(=N)N)C(=O)N[C@@H](CC(C)C)C(=O)N[C@H](C(=O)N[C@@H](CCC(=O)O)C(N)=O)[C@@H](C)O)NC(=O)[C@H](CCCNC(=N)N)NC(=O)[C@H](CC(C)C)NC(=O)[C@H](CCC(=O)O)NC1=O [SD15808] (Ac-PSRLEEELR[dK]RLTE-NH2; lactam 6-10) = > 6 h

Proceed to the following item.
Query block: Provide only the value of recorded half-life for CC(=O)N1CCC[C@H]1C(=O)N[C@@H](CO)C(=O)N[C@@H](CCCNC(=N)N)C(=O)N[C@@H](CC(C)C)C(=O)N[C@H]1CCC(=O)NCCCC[C@@H](C(=O)N[C@@H](CCCNC(=N)N)C(=O)N[C@@H](CCCNC(=N)N)C(=O)N[C@@H](CC(C)C)C(=O)N[C@H](C(=O)N[C@@H](CCC(=O)O)C(N)=O)[C@@H](C)O)NC(=O)[C@H](CC(C)C)NC(=O)[C@H](CCC(=O)O)NC(=O)[C@H](CCC(=O)O)NC1=O [SD15806] (Ac-PSRLEEELKRRLTE-NH2; lactam 5-9)
Result block: > 6 h

====

- assay text: Plasma stability, mouse plasma
- condition summary: mouse plasma, 37° C., timepoint 6 h
Bridge positions count the residues as written; N and C are the ends. Square brackets hold non-standard residues; d marks the D form. Peptide text beside a SMILES is read from it.
reported property: Mean (compound concentration)
Could you respond with only the numeric value?

CC(=O)N1CCC[C@H]1C(=O)N[C@@H](CO)C(=O)N[C@@H](CCCNC(=N)N)C(=O)N[C@@H](CC(C)C)C(=O)N[C@@H](CCC(=O)O)C(=O)N[C@H]1CSSC[C@H](C(=O)N[C@@H](CCCNC(=N)N)C(=O)N[C@@H](CCCNC(=N)N)C(=O)N[C@@H](CC(C)C)C(=O)N[C@H](C(=O)N[C@@H](CCC(=O)O)C(N)=O)[C@@H](C)O)NC(=O)[C@H](CC(C)C)NC(=O)[C@H](CCC(=O)O)NC1=O [SD15807] (Ac-PSRLECEL[dC]RRLTE-NH2; disulfide 6-9) = 0.804

Proceed to the following item.
Query block: Provide only the value of recorded Mean (compound concentration) for CC(=O)N1CCC[C@H]1C(=O)N[C@@H](CO)C(=O)N[C@@H](CCCNC(=N)N)C(=O)N[C@@H](CC(C)C)C(=O)N[C@@H](CCC(=O)O)C(=O)N[C@H]1CCC(=O)NCCCC[C@H](C(=O)N[C@@H](CCCNC(=N)N)C(=O)N[C@@H](CC(C)C)C(=O)N[C@H](C(=O)N[C@@H](CCC(=O)O)C(N)=O)[C@@H](C)O)NC(=O)[C@H](CCCNC(=N)N)NC(=O)[C@H](CC(C)C)NC(=O)[C@H](CCC(=O)O)NC1=O [SD15808] (Ac-PSRLEEELR[dK]RLTE-NH2; lactam 6-10)
Result block: 1.955
